Entry source: PubChem BioAssay AID1159580

Test: chemical genetic growth profiling, strain panel (AID 1159580);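 also: tested at 20 µM; growth read once vehicle control cultures reached saturation at 30 °C; 1 = growth at the plate median or of vehicle wells; lower values mean less growth of the strain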
Conditions: S. cerevisiae deletion strains, growth OD, locus YLR330W, strain CHS5, hits give low values
Hit rate of the full screen: of about 5,500 compounds, about 2,000 (36%) were called active. Not shown: some 18% with an inconclusive outcome. Some of the results follow.
READOUT_LABEL: normalized growth

{"COMPOUND": "O=C(O)C1=CCCNC1", "RESULT_VALUE": 0.984}
{"COMPOUND": "CC(=O)OCC(=O)[C@@]1(O)[C@H](C)CC2C3CCC4=CC(=O)C=C[C@]4(C)[C@@]3(F)[C@@H](O)C[C@@]21C (stereo not given in full)", "RESULT_VALUE": 1.01}
{"COMPOUND": "NCC(N)C(=O)c1ccccc1 (stereo not given)", "RESULT_VALUE": 1.04}
{"COMPOUND": "CC(C)CCCC(C)[C@H]1CCC2C3CC=C4CC(=O)CC[C@]4(C)C3CC[C@@]21C (stereo not given in full)", "RESULT_VALUE": 0.985}
{"COMPOUND": "CC(C)CCCC(C)C1CCC2C3CC(=O)[C@H]4C[C@@H](O)CC[C@]4(C)C3CC[C@]12C (stereo not given in full)", "RESULT_VALUE": 1.01}
{"COMPOUND": "CC(CCc1ccccc1)NCC(O)c1ccc(O)c(C(N)=O)c1 (stereo not given)", "RESULT_VALUE": 1.01}
{"COMPOUND": "CN(C)C(=O)Oc1cccc([N+](C)(C)C)c1", "RESULT_VALUE": 0.982}
{"COMPOUND": "COC(=O)/C(=C1\\OC(=O)C(c2ccccc2)=C1O)c1ccccc1", "RESULT_VALUE": 0.996}
{"COMPOUND": "CC(N=C(NC#N)Nc1ccncc1)C(C)(C)C (stereo not given)", "RESULT_VALUE": 1.01}
{"COMPOUND": "COc1ccc2cc(CCC(C)=O)ccc2c1", "RESULT_VALUE": 0.951}
{"COMPOUND": "CN(C)[C@@H]1C(=O)C(C(N)=O)=C(O)[C@@]2(O)C(=O)C3=C(O)c4c(O)ccc(Cl)c4[C@@H](O)[C@H]3C[C@@H]12", "RESULT_VALUE": 1.01}
{"COMPOUND": "O=C(O)c1ccc(S(=O)(=O)N(Cl)Cl)cc1", "RESULT_VALUE": 0.999}
{"COMPOUND": "CC(C)CC1NC(=O)CNC1=O (stereo not given)", "RESULT_VALUE": 1}
{"COMPOUND": "C[n+]1ccccc1/C=N/O", "RESULT_VALUE": 1.01}
{"COMPOUND": "N[C@@H](CCC(=O)N[C@@H](CS)C(=O)NCC(=O)O)C(=O)O", "RESULT_VALUE": 0.999}
